Readings of IC50 for the listed compounds
# Test system: KU1919.1
# Assay notes: Cell Titer Glo (CTG) proliferation assay, KU1919
# Assay type: cell-based
# Particulars: Homo sapiens, KU-19-19; KU1919.1 cells, 72.0 hrs.; read-out: AVE CTG Proliferation KU1919.1 72.0 hrs.

Reference set (3 entries):
Compound	IC50
CCc1cccc(-c2cnc(C(=O)N3CCN(CC45CCC(NCC(=O)NCCNC[C@@H](C(=O)N6CCN(c7ncnc8c7[C@H](C)C[C@H]8O)CC6)c6ccc(Cl)cc6)(CC4)CO5)CC3)c(NC(=O)CN3CCOCC3)c2)c1 [Compound I-175]	1000 to 5000 nM
C[C@@H]1C[C@@H](O)c2ncnc(N3CCN(C(=O)[C@H](CCN4CCC(CN5CCN(C(=O)[C@H](NC(=O)c6cccc(C7CCCN(C(=O)C8CC8)C7)c6)C6CCCCC6)CC5)CC4)c4ccc(Cl)cc4)CC3)c21 (stereo partly shown) [Compound I-265]	1000 to 5000 nM
C[C@@H]1C[C@@H](O)c2ncnc(N3CCN(C(=O)[C@H](CNCCNC(=O)CN4CCC(OC5CCN(C(=O)OC(C)(C)C)CC5)CC4)c4ccc(Cl)cc4)CC3)c21 [Compound I-314]	1000 to 5000 nM

Query (compound): C[C@@H]1C[C@@H](O)c2ncnc(N3CCN(C(=O)[C@@H](CCN4CCC(CN5CCN(C(=O)[C@H](NC(=O)c6cccc(C7CCCN(C(=O)CNCc8ccc(F)cc8F)C7)c6)C6CCCCC6)CC5)CC4)c4ccc(Cl)cc4)CC3)c21 (stereo partly shown) [Compound I-275] ; field requested: IC50
500 to 1000 nM
